biological target: TYRO3 (Homo sapiens); construct: purchased Eurofins DiscoverX KINOMEscan (scanTK); assay: KINOMEscan ScanTK; format: binding; conditions: read-out: %Control @1000nM
Sequence (Q06418 41-890): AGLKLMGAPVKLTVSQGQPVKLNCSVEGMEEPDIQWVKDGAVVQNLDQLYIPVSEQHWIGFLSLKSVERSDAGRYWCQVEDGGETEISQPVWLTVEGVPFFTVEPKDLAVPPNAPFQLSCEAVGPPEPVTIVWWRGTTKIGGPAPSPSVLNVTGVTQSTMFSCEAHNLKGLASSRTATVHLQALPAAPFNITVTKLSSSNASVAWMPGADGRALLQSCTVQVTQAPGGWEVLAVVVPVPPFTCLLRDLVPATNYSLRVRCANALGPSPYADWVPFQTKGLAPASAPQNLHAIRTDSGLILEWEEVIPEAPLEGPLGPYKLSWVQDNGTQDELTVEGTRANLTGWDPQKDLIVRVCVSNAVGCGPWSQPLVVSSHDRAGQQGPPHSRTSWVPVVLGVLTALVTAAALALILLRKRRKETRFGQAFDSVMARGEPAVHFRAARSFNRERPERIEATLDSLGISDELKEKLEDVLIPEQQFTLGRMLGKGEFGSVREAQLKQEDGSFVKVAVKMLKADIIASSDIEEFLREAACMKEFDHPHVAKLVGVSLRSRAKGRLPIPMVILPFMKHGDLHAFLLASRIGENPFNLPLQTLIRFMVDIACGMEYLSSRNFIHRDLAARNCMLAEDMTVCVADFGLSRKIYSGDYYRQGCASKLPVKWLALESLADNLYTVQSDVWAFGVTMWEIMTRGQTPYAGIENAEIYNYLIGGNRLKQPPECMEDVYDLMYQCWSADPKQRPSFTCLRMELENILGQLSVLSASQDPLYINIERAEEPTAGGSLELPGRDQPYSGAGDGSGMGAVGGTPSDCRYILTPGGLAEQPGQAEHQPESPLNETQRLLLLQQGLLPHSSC
Reported remaining binding at 1 µM is given for each of the following compounds.
Give the value, in units of %, as a plain number.

[
  {
    "compound": "CCOC(=O)c1cnc(S(C)(=O)=O)nc1N1CCC[C@@H](n2nc(-c3ccc(Oc4ccccc4)cc3)c3c(N)ncnc32)C1",
    "valueUnit": "%",
    "measured": 40
  }
]

*Q* Given COC(=O)c1cnc(S(C)(=O)=O)nc1N1CCCC(n2nc(-c3ccc(Oc4ccccc4)cc3)c3c(N)ncnc32)C1 (centres unmarked) , state its recorded remaining binding at 1 µM.
*A* 33

*Q* Do the same for C=CC(=O)N1CCC[C@@H](n2nc(-c3ccc(Oc4ccccc4)cc3)c3c(N)ncnc32)C1 [Compound 1g, Ibrutinib, reference compound] please
*A* 34

*Q* Now try Cc1cnc(S(C)(=O)=O)nc1N1CCCC(n2nc(-c3ccc(Oc4ccccc4)cc3)c3c(N)ncnc32)C1 (centres unmarked) .
*A* 40

*Q* And CNC(=O)c1cnc(S(C)(=O)=O)nc1N1CCCC(n2nc(-c3ccc(Oc4ccccc4)cc3)c3c(N)ncnc32)C1 (centres unmarked) ?
*A* 32

====

target: DDR1 (Homo sapiens); construct: purchased Eurofins DiscoverX KINOMEscan (scanTK); assay: KINOMEscan ScanTK; type: binding; conditions: read-out: %Control @1000nM
Sequence (Q08345 19-913): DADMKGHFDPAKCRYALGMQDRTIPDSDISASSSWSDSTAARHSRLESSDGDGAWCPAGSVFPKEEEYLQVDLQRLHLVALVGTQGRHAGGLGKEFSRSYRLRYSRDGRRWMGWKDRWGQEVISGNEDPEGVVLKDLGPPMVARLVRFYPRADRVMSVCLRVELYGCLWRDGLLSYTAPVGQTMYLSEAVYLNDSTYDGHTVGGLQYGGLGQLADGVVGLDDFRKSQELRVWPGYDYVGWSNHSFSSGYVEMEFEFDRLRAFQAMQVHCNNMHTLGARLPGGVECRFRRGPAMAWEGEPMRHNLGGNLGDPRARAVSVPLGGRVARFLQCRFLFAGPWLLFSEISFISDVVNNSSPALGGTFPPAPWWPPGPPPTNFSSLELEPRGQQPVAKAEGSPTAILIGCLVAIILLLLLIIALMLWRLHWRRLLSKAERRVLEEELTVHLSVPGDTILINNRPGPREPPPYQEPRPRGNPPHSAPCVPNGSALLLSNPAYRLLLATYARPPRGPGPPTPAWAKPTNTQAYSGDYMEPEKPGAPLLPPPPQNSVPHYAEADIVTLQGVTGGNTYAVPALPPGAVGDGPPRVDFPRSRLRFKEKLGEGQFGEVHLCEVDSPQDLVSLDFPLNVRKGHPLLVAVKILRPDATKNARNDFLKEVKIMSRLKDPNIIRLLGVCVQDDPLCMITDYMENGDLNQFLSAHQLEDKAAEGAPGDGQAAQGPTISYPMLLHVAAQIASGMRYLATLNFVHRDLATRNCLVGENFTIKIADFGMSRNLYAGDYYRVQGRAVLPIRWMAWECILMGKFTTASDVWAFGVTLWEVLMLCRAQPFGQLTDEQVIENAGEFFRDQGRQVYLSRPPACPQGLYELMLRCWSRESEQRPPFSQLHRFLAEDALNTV
quantityName: remaining binding at 1 µM
Please state the number and follow it with the unit.

Worked cases, answers included:
[
  {
    "compound": "CNC(=O)c1cnc(S(C)(=O)=O)nc1N1CCCC(n2nc(-c3ccc(Oc4ccccc4)cc3)c3c(N)ncnc32)C1 (centres unmarked)",
    "targetOrSystem": "DDR1 (Homo sapiens)",
    "quantityName": "remaining binding at 1 µM",
    "measured": "64%"
  },
  {
    "compound": "CCOC(=O)c1cnc(S(C)(=O)=O)nc1N1CCC[C@@H](n2nc(-c3ccc(Oc4ccccc4)cc3)c3c(N)ncnc32)C1",
    "targetOrSystem": "DDR1 (Homo sapiens)",
    "quantityName": "remaining binding at 1 µM",
    "measured": "64%"
  },
  {
    "compound": "C=CC(=O)N1CCC[C@@H](n2nc(-c3ccc(Oc4ccccc4)cc3)c3c(N)ncnc32)C1 [Compound 1g, Ibrutinib, reference compound]",
    "targetOrSystem": "DDR1 (Homo sapiens)",
    "quantityName": "remaining binding at 1 µM",
    "measured": "78%"
  }
]

*Q* Entry under review: COC(=O)c1cnc(S(C)(=O)=O)nc1N1CCCC(n2nc(-c3ccc(Oc4ccccc4)cc3)c3c(N)ncnc32)C1 (centres unmarked) . Reported remaining binding at 1 µM?
*A* 60%

*Q* Let us now turn to Cc1cnc(S(C)(=O)=O)nc1N1CCCC(n2nc(-c3ccc(Oc4ccccc4)cc3)c3c(N)ncnc32)C1 (centres unmarked)
*A* 83%

====

molecular target: FGFR2 (Homo sapiens); construct: purchased Eurofins DiscoverX KINOMEscan (scanTK); test: KINOMEscan ScanTK; assay type: binding; details: @1000nM, read-out: %Control
Sequence (P21802 22-821): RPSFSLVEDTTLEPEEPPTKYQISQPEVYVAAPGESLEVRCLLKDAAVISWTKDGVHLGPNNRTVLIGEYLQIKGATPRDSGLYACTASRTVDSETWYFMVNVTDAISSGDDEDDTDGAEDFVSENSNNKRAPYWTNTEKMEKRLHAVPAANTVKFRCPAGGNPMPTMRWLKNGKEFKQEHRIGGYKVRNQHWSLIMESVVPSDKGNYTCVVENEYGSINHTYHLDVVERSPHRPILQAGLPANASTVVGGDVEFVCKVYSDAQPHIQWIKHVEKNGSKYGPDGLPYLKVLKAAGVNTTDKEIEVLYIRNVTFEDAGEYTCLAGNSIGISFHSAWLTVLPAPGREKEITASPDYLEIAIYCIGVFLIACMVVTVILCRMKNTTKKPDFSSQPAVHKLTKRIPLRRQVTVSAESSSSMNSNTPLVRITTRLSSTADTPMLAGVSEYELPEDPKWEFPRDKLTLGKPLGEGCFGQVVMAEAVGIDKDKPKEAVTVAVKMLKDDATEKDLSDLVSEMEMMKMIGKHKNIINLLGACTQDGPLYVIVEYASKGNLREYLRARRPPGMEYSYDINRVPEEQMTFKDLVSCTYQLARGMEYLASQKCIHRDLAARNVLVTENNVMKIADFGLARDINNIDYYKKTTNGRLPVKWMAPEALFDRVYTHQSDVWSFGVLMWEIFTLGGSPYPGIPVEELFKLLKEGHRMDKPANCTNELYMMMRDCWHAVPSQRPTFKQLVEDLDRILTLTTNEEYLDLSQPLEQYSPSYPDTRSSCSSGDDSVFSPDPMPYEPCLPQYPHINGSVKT
Note to self: use true (1) only for remaining binding at 1 µM readings below 80%; a reading exactly at 80% still gets false (0).

Below are worked cases with known answers.
[
  {
    "compound": "COC(=O)c1cnc(S(C)(=O)=O)nc1N1CCCC(n2nc(-c3ccc(Oc4ccccc4)cc3)c3c(N)ncnc32)C1 (centres unmarked)",
    "category": "false (0)"
  },
  {
    "compound": "CNC(=O)c1cnc(S(C)(=O)=O)nc1N1CCCC(n2nc(-c3ccc(Oc4ccccc4)cc3)c3c(N)ncnc32)C1 (centres unmarked)",
    "category": "true (1)"
  },
  {
    "compound": "C=CC(=O)N1CCC[C@@H](n2nc(-c3ccc(Oc4ccccc4)cc3)c3c(N)ncnc32)C1 [Compound 1g, Ibrutinib, reference compound]",
    "category": "true (1)"
  }
]

# evaluate next
*Q* Does the reported remaining binding at 1 µM of Cc1cnc(S(C)(=O)=O)nc1N1CCCC(n2nc(-c3ccc(Oc4ccccc4)cc3)c3c(N)ncnc32)C1 (centres unmarked) stay below 80%?
*A* false (0)
